- study target: anti-CD28 Fab (SEQ ID NOs: 202, 203)
- Sequence (VH, as listed by the source, chain 1 of 2): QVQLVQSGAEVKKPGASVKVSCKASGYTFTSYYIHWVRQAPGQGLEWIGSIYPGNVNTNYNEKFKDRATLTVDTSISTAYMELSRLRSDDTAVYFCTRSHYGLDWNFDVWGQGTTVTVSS
- Sequence (VL, as listed by the source, chain 2 of 2): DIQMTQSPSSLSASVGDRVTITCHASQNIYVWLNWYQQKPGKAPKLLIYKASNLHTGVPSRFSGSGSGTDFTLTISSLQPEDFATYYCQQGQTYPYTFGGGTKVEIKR
- experimental details: phage ELISA, Fab on plate, CD28 antigen as competitor;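 further: wells pre-incubated with CD28 antigen in blocking buffer (reference: blocking buffer only) before adding crude clonal phage supernatant, bound phage read with HRP-coupled anti-M13 antibody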
readout label: Anti-CD28 Fab signal in the presence of CD28

{"binder": "TCSAGATYKWPVCL [Phage-1112]", "result": 0.06}
{"binder": "LCEEFFHYSWPLCL [Phage-1190]", "result": 0.06}
{"binder": "SCAAGATYSWPACL [Phage-1177]", "result": 0.07}
{"binder": "WCGVGMDWRWPECL [Phage-1122]", "result": 0.16}
{"binder": "TCSAGATYSWPSCF [Phage-1187]", "result": 0.09}
{"binder": "TCAAGASWEWPACL [Phage-1109]", "result": 0.08}
{"binder": "TCAAGATWLWPWCL [Phage-1182]", "result": 0.07}
{"binder": "SCAAGATYTWPFCL [Phage-1170]", "result": 0.07}
{"binder": "TCSAGASWGWPWCL [Phage-1185]", "result": 0.07}
{"binder": "TCTAGFSYKWPTCL [Phage-1174]", "result": 0.09}
{"binder": "TCAAGAMYQWPECF [Phage-1110]", "result": 0.06}

// data source = patent US20260274955A1
